Measured composite z-score by item
target: Calmodulin-1 (Homo sapiens) (UniProt P0DP23); experiment: small molecules binding calmodulin-1 with EGTA – biochemical, small-molecule microarray, Cy5-labelled CALM1, profiling panel (AID 1111); settings: Cy5-CALM1 binding fluorescence, higher = more signal;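 note: labelled calmodulin applied in Tris saline Tween buffer holding calcium plus EGTA and DTT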
measured-quantity: composite z-score

INSERT INTO assay_data (molecule, value_measured) VALUES
  ('O=C1C2C=CC(C(O)C=Cc3ccc([N+](=O)[O-])cc3)N(n3cnnc3)C2C(=O)N1Cc1ccccc1 (configuration not stated)', 0.596),
  ('COCCOC(=O)N1C(=O)[C@@]2(c3cc(C#Cc4ccc(OC)cc4)ccc31)[C@H](c1ccc(O)cc1)N1[C@H](c3ccccc3)[C@H](c3ccccc3)OC(=O)[C@H]1[C@@H]2C(=O)Nc1nc2ccccc2s1', 1.18),
  ('C=C(CCCC)/C(=C/C[C@@H](OC(C)=O)c1cccc(OCCO)c1)c1cnc2ccccc2c1', -0.18),
  ('COC(=O)[C@@]1(CCC(=O)OC(C)(C)C)N=C(c2ccc(OCCCO)cc2)O[C@H]1c1ccccc1', 0.0108),
  ('C=C(CCCC)/C(=C/C[C@H](OC(C)=O)c1ccc(OCCO)cc1)c1cnc2ccccc2c1', -0.185),
  ('CCCC(=O)N(CCc1c[nH]c2ccccc12)[C@@H]1CC(C(=O)NCCO)=C[C@H](Oc2c(I)cc(CO)cc2OC)[C@H]1O', -0.0781),
  ('C=CC[C@@]1(C(=O)N2CCCCC2)N=C(c2ccc(OCCCO)cc2)O[C@@H]1c1ccccc1CN=[N+]=[N-]', 1.75),
  ('COc1ccc(-c2cc3c(c(Cc4ccccc4)n2)[Si](C(C)C)(C(C)C)OC3)cn1', -0.646),
  ('CCCC=C(CCC)[C@@H](NS(=O)(=O)c1ccc(Cl)cc1)c1ccc(C(=O)OC)cc1', -0.246),
  ('COC(=O)[C@H](Cc1ccccc1)N[C@H](/C=C/C1CC1)[C@@H](O)Cc1ccccc1', -0.595),
  ('Cc1ccc(S[C@]2(C(=O)O)CC(=O)N(Cc3ccccc3C(F)(F)F)[C@@H]2c2ccc(CO)cc2I)cc1', -0.633),
  ('C=CCNC(=O)[C@@H]1[C@H]2C(=O)O[C@H](c3ccccc3)[C@H](c3ccccc3)N2[C@H](c2ccc(OCCO)cc2)[C@@]12C(=O)N(C(=O)OCCOC)c1ccc(C#CCC(C(=O)OC)C(=O)OC)cc12', 1.61),
  ('C[N+](C)(C)CCCC[C@@H]1NC(=O)[C@H]2C[C@@H](C(=O)NCCCCCCNC(=O)CS)[C@@H](c3ccc(O)cc3)N2C1=O', -0.493),
  ('O=c1cccc(-c2ccccc2Cl)o1', -0.559),
  ('C=C(C(=O)CC[C@H](OC(C)=O)c1ccccc1OCCO)C(C)C', -0.296),
  ('COCCCNC(=O)[C@@H]1c2ccccc2C(=O)N(Cc2ccccc2OC)[C@H]1c1ccc(CO)cc1', 0.349),
  ('CC1CC/C=C\[C@H]2OC34C=CCN(c5ccc6ccccc6c5)C(=O)[C@H]3N(CCO)C(=O)[C@@H]4C2C(=O)O1 (some centres not stated)', -0.832);
